- Target Or System: T1, TNFR1 (Homo sapiens, UniProt P19438)
- T1 chain: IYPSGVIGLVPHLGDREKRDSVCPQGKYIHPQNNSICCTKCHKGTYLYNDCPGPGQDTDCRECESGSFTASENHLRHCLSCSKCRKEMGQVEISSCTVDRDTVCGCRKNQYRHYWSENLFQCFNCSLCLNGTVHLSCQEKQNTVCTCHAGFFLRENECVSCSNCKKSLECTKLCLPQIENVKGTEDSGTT
- Method: yeast display SC50
Each record is given Condition met if its reported apparent Kd (screen) is strictly below 3 nM. Records at or above 3 nM are given Condition not met.

R38G (designed binder) SMEEEVEKAAKEYEKKKKEAIEKHLEKLKAKDKEAAEGFLKELEEAAKEYAKDEAKTMSEEEAKRRAKKYKEKVLLSELSEEEQKEIKEAEEKLVRTILKYVEEAAK ... Condition met
L25D (designed binder) SMEEEVEKAAKEYEKKKKEAIEKHDEKLKAKDKEAAERFLKELEEAAKEYAKDEAKTMSEEEAKRRAKKYKEKVLLSELSEEEQKEIKEAEEKLVRTILKYVEEAAK ... Condition met
F39N (designed binder) SMEEEVEKAAKEYEKKKKEAIEKHLEKLKAKDKEAAERNLKELEEAAKEYAKDEAKTMSEEEAKRRAKKYKEKVLLSELSEEEQKEIKEAEEKLVRTILKYVEEAAK ... Condition not met
A67I (designed binder) SMEEEVEKAAKEYEKKKKEAIEKHLEKLKAKDKEAAERFLKELEEAAKEYAKDEAKTMSEEEAKRRIKKYKEKVLLSELSEEEQKEIKEAEEKLVRTILKYVEEAAK ... Condition not met
Q84K (designed binder) SMEEEVEKAAKEYEKKKKEAIEKHLEKLKAKDKEAAERFLKELEEAAKEYAKDEAKTMSEEEAKRRAKKYKEKVLLSELSEEEKKEIKEAEEKLVRTILKYVEEAAK ... Condition not met
K33R (designed binder) SMEEEVEKAAKEYEKKKKEAIEKHLEKLKAKDREAAERFLKELEEAAKEYAKDEAKTMSEEEAKRRAKKYKEKVLLSELSEEEQKEIKEAEEKLVRTILKYVEEAAK ... Condition met
K27V (designed binder) SMEEEVEKAAKEYEKKKKEAIEKHLEVLKAKDKEAAERFLKELEEAAKEYAKDEAKTMSEEEAKRRAKKYKEKVLLSELSEEEQKEIKEAEEKLVRTILKYVEEAAK ... Condition met
Y70A (designed binder) SMEEEVEKAAKEYEKKKKEAIEKHLEKLKAKDKEAAERFLKELEEAAKEYAKDEAKTMSEEEAKRRAKKAKEKVLLSELSEEEQKEIKEAEEKLVRTILKYVEEAAK ... Condition not met
A46H (designed binder) SMEEEVEKAAKEYEKKKKEAIEKHLEKLKAKDKEAAERFLKELEEHAKEYAKDEAKTMSEEEAKRRAKKYKEKVLLSELSEEEQKEIKEAEEKLVRTILKYVEEAAK ... Condition met

Then there is this binder:
Strictly below 3 nM in apparent Kd (screen)? K68R (designed binder) SMEEEVEKAAKEYEKKKKEAIEKHLEKLKAKDKEAAERFLKELEEAAKEYAKDEAKTMSEEEAKRRARKYKEKVLLSELSEEEQKEIKEAEEKLVRTILKYVEEAAK Condition met
